self-splicing fitness (ln): recorded values
- measurement-protocol: self-splicing fitness, log relative to wild type (ln ratio); higher = more splicing; Tetrahymena group I intron in knt gene, E. coli kanamycin selection, DiMSum; sequences stand for … in CUCUCU…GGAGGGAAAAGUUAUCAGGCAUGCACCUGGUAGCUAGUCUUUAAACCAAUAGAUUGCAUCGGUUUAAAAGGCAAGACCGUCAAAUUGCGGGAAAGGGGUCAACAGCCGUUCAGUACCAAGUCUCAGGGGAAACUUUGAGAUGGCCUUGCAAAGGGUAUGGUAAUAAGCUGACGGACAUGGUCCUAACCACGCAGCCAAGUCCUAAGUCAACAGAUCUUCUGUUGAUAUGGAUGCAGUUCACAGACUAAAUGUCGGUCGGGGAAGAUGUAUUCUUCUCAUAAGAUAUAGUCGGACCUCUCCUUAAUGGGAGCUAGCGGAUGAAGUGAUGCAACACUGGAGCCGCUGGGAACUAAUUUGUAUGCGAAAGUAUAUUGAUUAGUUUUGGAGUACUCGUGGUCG;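 further: selection with 25 µg/mL kanamycin versus none on LB agar overnight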
- run-conditions: 37 °C
metric-name: self-splicing fitness (ln)

- AUAAAGCAAUAUUACGCGUG: -0.15
- GAUAAGCAAUAUUACGUGAU: -0.957
- UUAAAGCAAUAUUACGCCAU: -1.14
- UUUUAGCAAUAUUACGAGCU: -2.22
- AAAGAGCAAUAUUACGCUGC: -2.84
- UAAAAGCAAUAUUACGAAAC: -3.3
- UCGGAGCAAUAUUACGAUCG: -0.115
- UUCAAGCAAUAUUACGCAUU: -1.27
- GAUAAGCAAUAUUACGGAAC: -1.6
- ACCCAGCAAUAUUACGCAUA: -1.07
- AUUUAGCAAUAUUACGCGGU: -1.87
- UGUCAGCAAUAUUACGGACG: -1.34
- GCUUAGCAAUAUUACGGAGG: -0.819
- UUUGAGCAAUAUUACGGACG: -2.71
- AAACAGCAAUAUUACGAGCU: -0.704
- GCAGAGCAAUAUUACGCAGG: -2.2
- AGGCAGCAAUAUUACGAUCC: -0.211
- GUACAGCAAUAUUACGUUGU: -1.99
- UAGAAGCAAUAUUACGUACU: -0.355
- UGUCAGCAAUAUUACGGUUG: 0.317
- GCUAAGCAAUAUUACGUGGC: -2.46
- UUUCAGCAAUAUUACGAUCU: -0.561
- UCGAAGCAAUAUUACGGGGU: -2.25
- UCCGAGCAAUAUUACGGACA: -0.762
- CGACAGCAAUAUUACGCAUU: -2.03
- CACCAGCAAUAUUACGUUCA: -2.15
- CUAGAGCAAUAUUACGGAGC: -3.62

All values here come from the supplement of paper PMC7877785.
